Origin of measurements: patent US20210395344A1

Entries and their kon
biological target: SARS-CoV-2 S1 (antigen of the Carterra SPR kinetics) (SARS-CoV-2, UniProt P0DTC2 16-685); test: Carterra SPR
// note: answer is a bare numeric in M⁻¹ s⁻¹

Lookup: State its kon for this binder: 1-23 (antibody, V domains shown, also called variant 1-23) VH: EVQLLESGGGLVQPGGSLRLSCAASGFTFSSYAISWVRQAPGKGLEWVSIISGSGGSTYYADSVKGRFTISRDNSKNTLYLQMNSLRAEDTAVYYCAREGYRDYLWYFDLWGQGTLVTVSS VL: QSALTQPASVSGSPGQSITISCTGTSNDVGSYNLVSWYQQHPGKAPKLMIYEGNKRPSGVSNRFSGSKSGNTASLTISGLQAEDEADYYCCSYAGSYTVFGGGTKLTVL
Found: 506000

Lookup: Give the reported value of kon for this record: 1-2 (antibody, V domains shown, also called variant 1-2) VH: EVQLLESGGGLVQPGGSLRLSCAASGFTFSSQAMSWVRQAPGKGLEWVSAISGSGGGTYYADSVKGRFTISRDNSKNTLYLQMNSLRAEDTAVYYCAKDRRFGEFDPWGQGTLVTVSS VL: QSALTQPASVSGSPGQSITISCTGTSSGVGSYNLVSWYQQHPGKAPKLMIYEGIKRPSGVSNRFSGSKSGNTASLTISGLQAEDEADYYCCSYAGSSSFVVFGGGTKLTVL
Found: 1580

Lookup: Specify measured kon for 1-31 (antibody, V domains shown, also called variant 1-31) VH: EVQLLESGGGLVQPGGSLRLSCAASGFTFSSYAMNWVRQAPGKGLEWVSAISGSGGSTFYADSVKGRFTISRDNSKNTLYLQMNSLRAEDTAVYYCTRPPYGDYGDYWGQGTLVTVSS VL: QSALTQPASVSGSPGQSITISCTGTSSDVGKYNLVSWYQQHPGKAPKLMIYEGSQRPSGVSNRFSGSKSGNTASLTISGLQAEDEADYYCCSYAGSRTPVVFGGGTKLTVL .
Found: 20500
